The reported measurements were obtained from ChEMBL document CHEMBL3608235.

experiment: Cytotoxicity against mock-infected human MT4 cells assessed as reduction in cell viability; type: cell-based
ASSAY READOUT: CC50

Exercise: Using known records, supply CC50 for Cc1cccc(Sc2c(C(C)C)c(COC(N)=O)cn2Cc2ccncc2)c1
Key: > 200 µM

Exercise: State its CC50 for this compound: CC(C)c1c(COC(N)=O)cn(Cc2ccc(N)cc2)c1Sc1cc(Cl)cc(Cl)c1
Key: > 200 µM

Exercise: Provide one value: measured CC50 of C=CCN1C(=O)c2cccn2S(=O)(=O)c2ccccc21
Key: > 100 µM

Exercise: For the compound CC(C)c1c(COC(N)=O)cn(Cc2ccncc2)c1Sc1cc(Cl)cc(Cl)c1 , give its measured CC50 value.
Key: > 200 µM

Exercise: Please report the measured CC50 for CN1C(=O)c2cccn2S(=O)(=O)c2cc(Cl)ccc21
Key: > 300 µM
